# measured.target: Bifunctional dihydrofolate reductase-thymidylate synthase (Plasmodium falciparum K1) (UniProt P13922)
# Sequence (P13922 whole entry, looked up): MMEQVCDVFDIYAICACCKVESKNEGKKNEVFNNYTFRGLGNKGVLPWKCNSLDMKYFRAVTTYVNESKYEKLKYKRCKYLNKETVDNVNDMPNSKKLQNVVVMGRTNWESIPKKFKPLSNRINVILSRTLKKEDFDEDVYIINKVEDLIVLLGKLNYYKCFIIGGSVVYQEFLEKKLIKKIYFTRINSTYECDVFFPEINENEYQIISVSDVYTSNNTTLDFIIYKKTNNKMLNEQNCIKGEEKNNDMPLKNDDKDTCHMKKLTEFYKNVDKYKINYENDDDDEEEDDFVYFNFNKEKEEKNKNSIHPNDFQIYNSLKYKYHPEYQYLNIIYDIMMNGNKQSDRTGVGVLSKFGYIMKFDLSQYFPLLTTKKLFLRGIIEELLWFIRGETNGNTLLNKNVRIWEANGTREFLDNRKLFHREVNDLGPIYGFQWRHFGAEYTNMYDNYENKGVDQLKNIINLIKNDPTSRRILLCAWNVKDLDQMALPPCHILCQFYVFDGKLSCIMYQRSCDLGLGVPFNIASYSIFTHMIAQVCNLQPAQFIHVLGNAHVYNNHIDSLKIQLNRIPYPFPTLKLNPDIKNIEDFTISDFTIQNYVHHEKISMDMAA
# assay.notes: Inhibitory activity against wild-type dihydrofolate reductase (S108N DHFR), relative to trimethoprim
Reported Relative activity values are given for each entry in this list.
# print the numeric value only

Answered cases to consult:
1. CCOc1ccc(Cc2cnc(N)nc2N)cc1OC
1.5
2. CCOc1cc(Cc2cnc(N)nc2N)ccc1OCCCc1ccccc1
0.1
3. CCCCOc1cc(Cc2cnc(N)nc2N)ccc1OC
0.2
4. COc1cc(Cc2cnc(N)nc2N)ccc1OCCCOCCCOc1ccccc1
0.18
5. CCCCCCCOc1ccc(Cc2cnc(N)nc2N)cc1
1.7

Q: Query: Relative activity; subject: CCCOc1cc(Cc2c(N)nc(N)nc2CC)ccc1OCc1cc(OC)c(OC)c(OC)c1
Ans: 0.17

Q: Moving on to CCOc1cc(Cc2cnc(N)nc2N)ccc1OCCCOc1ccccc1
Ans: 0.06

Q: Moving on to CCCOc1ccc(Cc2cnc(N)nc2N)cc1
Ans: 1.5
